- System: SNB-19
- assay procedure: NCI tumour cell line growth inhibition, 48 h
Active and inactive are the calls of the source. No stated cut-off is given here; in the data, active = GI50 up to about 1.1 µM and inactive = higher.
A correct response names exactly one class from active, inactive

Past entries and their recorded results:
[in] What outcome does the record of this test show for `Cc1cc(N(CCC#N)CCC#N)ccc1C(/N=N\c1ccc(C(=O)O)cc1)=N\NC(=O)c1cc(Cl)ccc1O` ?
[out] inactive

[in] I would be grateful if you could indicate the recorded call for `CC(C)=CCN(N=O)c1ncnc2[nH]cnc12` .
[out] inactive

[in] Check the results log: what was the call for `CC(=O)NC(c1nc2cc(C)c(C)cc2[nH]1)c1nc2cc(C)c(C)cc2[nH]1` ?
[out] inactive

[in] Hi team, can someone confirm the assay call for CC(NC1=NCCO1)c1ccccc1Cl (stereo not given) ?
[out] inactive

[in] Status in this test for `C/N=c1/oc2ccccc2cc1C(N)=O` ?
[out] inactive

More entries:
[in] Name the outcome recorded for COC(=O)CCc1ccc2c(c1)CC1(C2)Cc2ccc3c(c2C1)CCC3 (stereo not given) in the assay.
[out] inactive

[in] Given NC(=O)NC1C(C(N)=O)N(Cc2ccccc2)C(=O)N1Cc1ccccc1 (stereo not given) , state the outcome it received in this test.
[out] inactive

[in] So what was the verdict on `CC(C)C(/C=C/c1ccccc1)=N\NC(=O)N/N=C(/C=C/c1ccccc1)C(C)C` in this test?
[out] inactive

[in] Hi, sorry to bother you, what did the test record for COC1/C=C\OC2(C)Oc3c(C)c(O)c4c(O)c(c(/C=N\OCCCc5ccccc5)c(O)c4c3C2=O)NC(=O)/C(C)=C\C=C/C(C)C(O)C(C)C(O)C(C)C(OC(C)=O)C1C (stereo not given) ?
[out] inactive

[in] # lookup: test call for Cc1nn(C(=O)c2ccc(Cl)cc2)c2c1C(c1ccco1)SC(=N)N2 (stereo not given)
[out] inactive

[in] # outcome recorded in this test, key = CC1(c2sccc2Cl)CC(c2sccc2Cl)=C(C#N)C(=C(C#N)C#N)N1 (stereo not given)
[out] inactive

[in] Query: recorded result category for `CSc1c(C#N)c(=O)[nH]c2[nH]nc(C)c12` in this test
[out] inactive

[in] Query: recorded result category for `O=C1C(=O)N(c2cccc(C(F)(F)F)c2)C(=O)C(=O)C1c1nc2ccccc2s1` in this test
[out] inactive

[in] Write down the call the test reported for this molecule. Item: `Cc1cnc2sn(-c3ccc([N+](=O)[O-])cc3)c(=O)c2c1`
[out] inactive

[in] Could you check what this test reported for `COc1cc([C@H]2c3cc(O)c(OC)cc3C[C@]3(O)[C@@H]2CO[C@@H]3O)ccc1O` ?
[out] inactive

[in] Per the records of this test, what outcome belongs to `c1ccc2c(c1)Cn1c-2nc2ccccc21` ?
[out] inactive

[in] What is the recorded call for this molecule in the test? C=C(C(=O)O[C@H]1C/C(C)=C/CC/C(CO)=C/[C@H]2C(=O)OC(=C)[C@H]12)C(O)CO (stereo not given in full)
[out] inactive

[in] How was `COc1cc2c(cc1C[C@H]1[C@@H]3C[C@H]4c5c(c6ccccc6n5C)C[C@@H]([C@@H]3CO[C@]1(C)OC(C)=O)N4C)c1c(n2C)C2C[C@H]3C(C(C)=O)=COC[C@H]3[C@H](C1)N2C` classified in this test?
[out] inactive

[in] For `Cc1cc(CNC(=O)OCc2ccccc2)c(C)c2c1Oc1ccccc1O2` , which call appears in the assay record?
[out] inactive

[in] What did the test return for `Cc1ccc2c(O)cc(-c3ccc(C)s3)nc2n1` ?
[out] active
